Value source: patent US20230312550A1

# Test protocol: Kinetic solubility
# Recorded conditions: kinetic from dmso stock, Solubility, kinetic solubility; n = 1 or average of n = 2-3
Exercise: for every item that follows, state its recorded solubility.
Numbers only here, please. The scale is µM.

IN: Would you kindly share the measured solubility for N#C[C@@H]1CSCN1C(=O)CNC(=O)c1ccnc2ccc(N3CC(CC(F)F)C3)cc12 ?
OUT: 18

IN: Then this compound: CC1(C2CC2)CN(c2ccc3nccc(C(=O)NCC(=O)N4CSC[C@H]4C#N)c3c2)C1
OUT: 71

###

# Test protocol: Caco-2 cell permeability
# Recorded conditions: human
Readout kind: Papp B→A (×10⁻⁶ cm/s)
Numbers only here, please. The scale is ×10⁻⁶ cm/s.

IN: Would you kindly share the measured Papp B→A for N#C[C@@H]1CSCN1C(=O)CNC(=O)c1ccnc2ccc(N3CCOC4(CCOCC4)C3)cc12 [Example 99] ?
OUT: 21

IN: Then this compound: COCC1(C)CN(c2ccc3nccc(C(=O)NCC(=O)N4CSC[C@H]4C#N)c3c2)C1 [Example 29]
OUT: 37

IN: Then this compound: N#C[C@@H]1CSCN1C(=O)CNC(=O)c1ccnc2ccc(N3CC4(CC(F)C4)C3)cc12 [Example 155]
OUT: 27

IN: Then this compound: N#C[C@@H]1CSCN1C(=O)CNC(=O)c1ccnc2ccc(N3CC4(COC4)C3)cc12 [Example 166]
OUT: 13

IN: Then this compound: N#C[C@@H]1CSCN1C(=O)CNC(=O)c1ccnc2ccc(N3CC4CCC(C3)O4)cc12 [Example 79]
OUT: 33

IN: Then this compound: CS(=O)(=O)C[C@@H]1CN(c2ccc3nccc(C(=O)NCC(=O)N4CSC[C@H]4C#N)c3c2)CCO1 [Example 94]
OUT: 4.4

IN: Then this compound: CC1(C)CCN(c2ccc3nccc(C(=O)NCC(=O)N4CSC[C@H]4C#N)c3c2)CC1 [Example 33]
OUT: 19

IN: Then this compound: CO[C@@H]1CN(c2ccc3nccc(C(=O)NCC(=O)N4CSC[C@H]4C#N)c3c2)[C@H]1C [Example 30]
OUT: 30

IN: Then this compound: N#C[C@@H]1CSCN1C(=O)CNC(=O)c1ccnc2ccc(N3CCC4(CC3)COC4)cc12 [Example 229]
OUT: 32

IN: Then this compound: Cc1nc(C)c(-c2ccc3nccc(C(=O)NCC(=O)N4CSC[C@H]4C#N)c3c2)o1 [Example 215]
OUT: 29
